tested on: COLO 205 colon; experiment: NCI-60 one-dose screen, 48 h (100 = growth as untreated, 0 = no growth, -100 = all killed); conditions: 10 µM
Compounds without any hit were thinned out: in the full panel of roughly 83,000, 20% have a hit.
Consider the cut-off 30%. If the recorded growth is strictly smaller, the label is T; if not, the label is F.

Please indicate whether the reported growth of C#CCNCCN1C(=O)c2ccc3c4c(ccc(c24)C1=O)C(=O)N(CCNCC#C)C3=O is strictly below 30%. T

Next:
Please indicate whether the reported growth of O=S(=O)(NCl)c1ccccc1 is strictly below 30%. F

Please indicate whether the reported growth of Cc1ccc(/C(CS(=O)(=O)c2ccc(C)cc2)=N\O)cc1 is strictly below 30%. F

Please indicate whether the reported growth of CC1=CSC2=NC(c3ccc(Cl)c(Cl)c3)=CC(c3ccc(Cl)cc3)N12 (stereo unspecified) is strictly below 30%. F

Please indicate whether the reported growth of COc1ccc(Cn2cc3c(c2-c2cc(OC)c(OC)c(OC)c2)CCc2cnoc2-3)cc1N is strictly below 30%. T

====

tested on: HCT-15 colon; experiment: NCI-60 one-dose screen, 48 h (100 = growth as untreated, 0 = no growth, -100 = all killed); settings: 10 µM
The panel holds about 83,000 compounds, 20% with a hit somewhere; the sample as a whole holds those more often.
Exercise: for every item that follows, state its recorded growth.
Answers are plain numbers, in %.

Look over these answered cases.
Fetch value of growth on HCT-15 colon for CCN(CCCNC(=O)Cc1cc(=O)oc2cc(N(C)C)ccc12)CCNc1ccnc2cc(Cl)ccc12 . 83.2

Fetch value of growth on HCT-15 colon for CCN(CC)CCn1c(=N)n(CC(O)c2ccc(Cl)c(Cl)c2)c2ccccc21 (stereo not drawn) . 51.2

Fetch value of growth on HCT-15 colon for COc1ccc(-c2ccc(-c3ccc(C(=N)N)c(F)c3)s2)cc1 . -78.9

Fetch value of growth on HCT-15 colon for CCOc1ccc2c(c1)CC[C@@H]1[C@@H]2CC[C@]2(C)[C@@H](O)[C@@H](O)C[C@@H]12 . 95

Fetch value of growth on HCT-15 colon for O=C1/C(=C/c2ccc(O)cc2)Cc2ccc(Cl)cc21 . 89.2

Provide growth for all items below, preserving their order.
1. CC1(CO)CCCC12OCCO2 (stereo not drawn)
2. COc1ccc2oc(=O)cc(C(c3ccc[nH]3)c3ccc[nH]3)c2c1
3. CC(C)c1[nH]nc2c(NCc3ccc(-c4ccccn4)cc3)nc(SCCN)nc12

1: 101; 2: 9.01; 3: 7.24

====

tested on: ACHN renal; test: NCI-60 one-dose screen, 48 h (100 = growth as untreated, 0 = no growth, -100 = all killed); settings: 10 µM
About 83,000 compounds went through this panel and 20% of them were active in at least one assay; those are over-represented in the sample as a whole.
# binarize growth: threshold 80% inclusive, high side true (1), low side false (0)

Completed entries (count: 6):
Tell me whether growth is at least 80% here: Cc1ccc(C)c2c1sc1nc3n[nH]c(N)c3c(=N)n12 true (1)

Tell me whether growth is at least 80% here: Cc1cccc2c1O/C(=C\c1ncc([N+](=O)[O-])n1C)C2=O false (0)

Tell me whether growth is at least 80% here: Cc1cc(C)c2nc(C)c(C)[n+]([O-])c2c1 true (1)

Tell me whether growth is at least 80% here: O=C(N/N=C/c1ccccc1O)c1ccccc1 false (0)

Tell me whether growth is at least 80% here: C=C1C(=O)O[C@H]2[C@H]1CC/C(COC(=O)OCCCCCOC(=O)OC/C1=C/CC[C@@]3(C)O[C@H]3[C@H]3OC(=O)C(=C)[C@@H]3CC1)=C\CC[C@@]1(C)O[C@@H]21 false (0)

Tell me whether growth is at least 80% here: Nc1nc2c(ncn2C2OC3COP(=O)(O)OC4C(COP(=O)(O)OC2C3O)OC(n2cnc3c(N)ncnc32)C4O)c(=O)[nH]1 (centres undefined) true (1)

As a next step, examine the compound that follows.
Tell me whether growth is at least 80% here: CC(=O)OC1Oc2ccccc2-c2oc(=O)c(-c3cc(=O)oc4cc(O)ccc34)cc21 (centres undefined) true (1)
